molecules and their reported pIC50
Target: NKTR (Homo sapiens)
Construct: NKTR (UniProtKB Entry P30414: residues 7–179); host or cells: E. coli BL21(DE3)
Sequence (P30414 7-179): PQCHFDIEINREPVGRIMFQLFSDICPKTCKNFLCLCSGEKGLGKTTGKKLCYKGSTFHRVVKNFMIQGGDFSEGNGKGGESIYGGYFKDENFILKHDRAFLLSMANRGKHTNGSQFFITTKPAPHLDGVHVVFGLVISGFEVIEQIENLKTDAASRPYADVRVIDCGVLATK
Assay: Chymotrypsin coupled prolyl-isomerase assay
Assay type: biochemical
Details: wild-type NKTR; read-out: Wild-Type Cyclophilin Prolyl Isomerase Inhibition IC50 Values, NKTR
The value called pIC50 is obtained by taking minus log10 of the concentration in mol/L.

// query // pIC50 lookup, key: C[N+]1=C(C=CC=CC=C2N(CCCCCC(=O)NCCNC(=O)C3CCNC(=O)C=CC(=O)N4CCCC(Cc5ccccc5)(C4)C(=O)NC(Cc4ccc(-c5ccc(CC(C(=O)O)C(=O)O)cc5)cc4)C(=O)NCc4ccccc4CC(=O)N3)c3ccccc3C2(C)C)C(C)(C)c2ccccc21 (stereo not shown) [Compound B52-Cy5]
// result 5.15

Others:
// query Item NCCOCCNC(=O)[C@@H]1CCNC(=O)/C=C/C(=O)N2CCC[C@](Cc3ccccc3)(C2)C(=O)N[C@@H](Cc2ccc(-c3ccccc3)cc2)C(=O)NCc2ccccc2CC(=O)N1 has what recorded pIC50?
// result 4.00

---

Target: PPWD1 (Homo sapiens, UniProt Q96BP3)
Construct: PPWD1 (UniProtKB Entry Q96BP3: residues 473–646); host or cells: E. coli BL21(DE3)
Sequence (Q96BP3 473-646): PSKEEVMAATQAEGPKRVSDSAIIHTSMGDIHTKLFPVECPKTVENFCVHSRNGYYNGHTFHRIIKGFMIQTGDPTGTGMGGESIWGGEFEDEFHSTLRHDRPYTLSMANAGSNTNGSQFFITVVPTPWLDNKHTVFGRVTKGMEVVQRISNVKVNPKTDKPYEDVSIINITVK
Test: Chymotrypsin coupled prolyl-isomerase assay
Assay type: biochemical
Details: wild-type PPWD1; read-out: Wild-Type Cyclophilin Prolyl Isomerase Inhibition IC50 Values, PPWD1
measure: pIC50
A value of pIC50 is the negative decimal logarithm of a concentration given in moles per litre.

Examples with their reported pIC50 follow.
// query pIC50 lookup needed for NC(=O)C1CCNC(=O)C=CC(=O)N2CCCC(Cc3ccccc3)(C2)C(=O)NC(Cc2ccc(-c3ccc(C=O)c(B(O)O)c3)cc2)C(=O)NCc2ccccc2CC(=O)N1 (centres unmarked) [Compound C3A] , thanks.
// result 5.10

// query Let us now turn to NCCOCCNC(=O)[C@@H]1CCNC(=O)/C=C/C(=O)N2CCC[C@](Cc3ccccc3)(C2)C(=O)N[C@@H](Cc2ccc(-c3ccc(C#CC(=O)O)cc3)cc2)C(=O)NCc2ccccc2CC(=O)N1 [Compound B25]
// result 5.00

// query Same question, NCCOCCNC(=O)[C@@H]1CCNC(=O)/C=C/C(=O)N2CCC[C@](Cc3ccccc3)(C2)C(=O)N[C@@H](Cc2ccc(-c3ccccc3)cc2)C(=O)NCc2ccccc2CC(=O)N1 [Compound B2] this time
// result 5.49

Let us examine a further case.
// query Reported pIC50 for CC12CCCN(C1)C(=O)C=CC(=O)NCCC(C(=O)NCCOCCN)NC(=O)Cc1ccccc1CNC(=O)C(Cc1ccco1)NC2=O (centres unmarked) [Compound A25] : what is it?
// result 4.40

---

Biological target: CypE (Homo sapiens, UniProt Q9UNP9)
Construct: PPIE (UniProtKB Entry Q9UNP9: residues 131–301); host or cells: E. coli BL21(DE3)
Sequence (Q9UNP9 131-301): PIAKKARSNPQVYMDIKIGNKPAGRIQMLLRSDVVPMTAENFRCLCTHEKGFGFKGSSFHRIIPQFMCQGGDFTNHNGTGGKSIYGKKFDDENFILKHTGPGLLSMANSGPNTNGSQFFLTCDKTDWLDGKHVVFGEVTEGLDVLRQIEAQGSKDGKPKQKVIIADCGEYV
Assay: Chymotrypsin coupled prolyl-isomerase assay
Type: biochemical
Conditions: wild-type CypE; read-out: Wild-Type Cyclophilin Prolyl Isomerase Inhibition IC50 Values, CypE
The following compounds are listed with their measured IC50 values.
API: value field is a number in nM; no unit string.

// query Item C[N+]1=C(C=CC=CC=C2N(CCCCCC(=O)NCCNC(=O)C3CCNC(=O)C=CC(=O)N4CCCC(Cc5ccccc5)(C4)C(=O)NC(Cc4ccc(-c5ccc(CC(C(=O)O)C(=O)O)cc5)cc4)C(=O)NCc4ccccc4CC(=O)N3)c3ccccc3C2(C)C)C(C)(C)c2ccccc21 (stereo not drawn) [Compound B52-Cy5] has what recorded IC50?
// result 1000

// query Try this compound next: NCCOCCNC(=O)[C@@H]1CCNC(=O)/C=C/C(=O)N2CCC[C@](Cc3ccccc3)(C2)C(=O)N[C@@H](Cc2ccc(C(=O)c3ccccc3)cc2)C(=O)NCc2ccccc2CC(=O)N1
// result 99

Now examine the next entry.
// query Requested read-out: IC50. Entry: NCCOCCNC(=O)[C@@H]1CCNC(=O)/C=C/C(=O)N2CCC[C@](Cc3ccccc3)(C2)C(=O)N[C@@H](Cc2ccc(-c3ccc(CC(=O)O)cc3)cc2)C(=O)NCc2ccccc2CC(=O)N1
// result 130

---

Target: CypD (Homo sapiens, UniProt P30405)
Sequence (P30405 45-207): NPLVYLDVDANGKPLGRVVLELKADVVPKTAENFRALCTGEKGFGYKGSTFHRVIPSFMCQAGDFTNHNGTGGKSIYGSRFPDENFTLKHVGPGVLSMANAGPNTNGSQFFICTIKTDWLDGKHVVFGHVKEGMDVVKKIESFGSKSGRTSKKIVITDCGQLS
Experiment: Chymotrypsin coupled prolyl-isomerase assay
Conditions: read-out: IC50 CypD; prolyl-isomerase inhibition, 5 nM cyclophilin, Suc-AAPF-AMC; mean±s.e.m. of 3 technical replicates (B52, B53, C3A wild-type: mean±s.d. of 4 independent replicates)
measure: pIC50
Kindly note that pIC50 refers to -log10 of the concentration in mol/L and answer with the value alone.

// query Given NCCOCCNC(=O)[C@@H]1CCNC(=O)/C=C/C(=O)N2CCC[C@](Cc3ccccc3)(C2)C(=O)N[C@@H](Cc2ccc(-c3ccc(C(=O)O)cc3)cc2)C(=O)NCc2ccccc2CC(=O)N1 , state its recorded pIC50.
// result 6.52

// query Here is the next molecule: NCCOCCNC(=O)[C@@H]1CCNC(=O)/C=C/C(=O)N2CCC[C@](Cc3ccccc3)(C2)C(=O)N[C@@H](Cc2ccc(-c3ccc(CC(=O)O)cc3)cc2)C(=O)NCc2ccccc2CC(=O)N1
// result 7.40

Now examine the next entry.
// query Entry NCCOCCNC(=O)[C@@H]1CCNC(=O)/C=C/C(=O)N2CCC[C@](Cc3ccccc3)(C2)C(=O)N[C@@H](Cc2ccc(-c3ccc(CC(C(=O)O)C(=O)O)cc3)cc2)C(=O)NCc2ccccc2CC(=O)N1 : reported pIC50 = ?
// result 8.00

---

Target: CypE K218A (Homo sapiens, UniProt Q9UNP9, K218A)
Construct: Lane 6- GS-CypE K218A (131-301);; His6 tag with thrombin site (pET28a LIC); GS remnant stays on the N-terminus (N, cleaved yes); host or cells: E. coli BL21(DE3)
Sequence (Q9UNP9 131-301 K218A): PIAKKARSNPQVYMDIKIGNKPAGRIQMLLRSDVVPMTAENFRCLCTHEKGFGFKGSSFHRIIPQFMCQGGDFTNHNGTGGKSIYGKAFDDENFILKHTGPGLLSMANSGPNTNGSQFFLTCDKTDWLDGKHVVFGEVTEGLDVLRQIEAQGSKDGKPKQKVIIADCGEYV
Assay: Chymotrypsin coupled prolyl-isomerase assay
Assay type: biochemical
Conditions: mutant CypE K218A; read-out: Mutant Cyclophilin Prolyl Isomerase Inhibition IC50 Values, CypE K218A
measure: IC50 (nM)
Write the answer as a number in nM, unit excluded.

// query Which IC50 value belongs to NC(=O)C1CCNC(=O)C=CC(=O)N2CCCC(Cc3ccccc3)(C2)C(=O)NC(Cc2ccc(-c3ccc(C=O)c(B(O)O)c3)cc2)C(=O)NCc2ccccc2CC(=O)N1 (stereo not shown) ?
// result 2000

---

Biological target: CypG (Homo sapiens)
Construct: PPIG (UniProtKB Entry Q13427: residues 1–179); His6 with thrombin site (pET28a LIC leader) (N); host or cells: E. coli BL21(DE3)
Sequence (Q13427 1-179): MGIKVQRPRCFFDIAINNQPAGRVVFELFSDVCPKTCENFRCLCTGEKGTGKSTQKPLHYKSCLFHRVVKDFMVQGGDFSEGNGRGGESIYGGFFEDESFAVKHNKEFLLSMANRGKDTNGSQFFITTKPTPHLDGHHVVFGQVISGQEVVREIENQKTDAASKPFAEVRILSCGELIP
Test: Chymotrypsin coupled prolyl-isomerase assay
Format: biochemical
Settings: wild-type CypG; read-out: Wild-Type Cyclophilin Prolyl Isomerase Inhibition IC50 Values, CypG
pIC50: −log10 of the molar value.
measure: pIC50

Worked set:
// query Can you share its pIC50? I mean this compound: NCCOCCNC(=O)[C@@H]1CCNC(=O)/C=C/C(=O)N2CCC[C@](Cc3ccccc3)(C2)C(=O)N[C@@H](Cc2ccc(-c3ccc(C(CC(=O)O)CC(=O)O)cc3)cc2)C(=O)NCc2ccccc2CC(=O)N1
// result < 4.30

// query Queued: NCCOCCNC(=O)[C@@H]1CCNC(=O)/C=C/C(=O)N2CCC[C@](Cc3ccccc3)(C2)C(=O)N[C@@H](Cc2ccc(-c3ccc(C#CC(=O)O)cc3)cc2)C(=O)NCc2ccccc2CC(=O)N1
// result 4.60

// query Same read-out for NCCOCCNC(=O)[C@@H]1CCNC(=O)/C=C/C(=O)N2CCC[C@](Cc3ccccc3)(C2)C(=O)N[C@@H](Cc2ccc(-c3ccc(CC(C(=O)O)C(=O)O)cc3)cc2)C(=O)NCc2ccccc2CC(=O)N1 ?
// result < 4.00

Moving on to the next compound.
// query pIC50 lookup needed for NCCOCCNC(=O)[C@@H]1CCNC(=O)/C=C/C(=O)N2CCC[C@](Cc3ccccc3)(C2)C(=O)N[C@@H](Cc2ccc(-c3ccc(C(=O)O)cc3)cc2)C(=O)NCc2ccccc2CC(=O)N1 , thanks.
// result < 4.00

---

List of pIC50 values.
Molecular target: CypE (Homo sapiens, UniProt Q9UNP9)
Construct: PPIE (UniProtKB Entry Q9UNP9: residues 131–301); host or cells: E. coli BL21(DE3)
Experiment: Chymotrypsin coupled prolyl-isomerase assay
Format: biochemical
Details: wild-type CypE; read-out: Wild-Type Cyclophilin Prolyl Isomerase Inhibition IC50 Values, CypE
Schema: pIC50 number; meaning minus log10 of the concentration expressed in molar units.

Before answering, review these 4 worked examples.
// query Find the recorded pIC50 belonging to NC(=O)C1CCNC(=O)C=CC(=O)N2CCCC(Cc3ccccc3)(C2)C(=O)NC(Cc2ccc(-c3ccc(C=O)c(B(O)O)c3)cc2)C(=O)NCc2ccccc2CC(=O)N1 (stereo not shown) and report it.
// result 7.89

// query How about CC12CCCN(C1)C(=O)C=CC(=O)NCCC(C(=O)NCCOCCN)NC(=O)Cc1ccccc1CNC(=O)C(Cc1ccco1)NC2=O (stereo not shown) ?
// result 4.85

// query Param item: NCCOCCNC(=O)[C@@H]1CCNC(=O)/C=C/C(=O)N2CCC[C@](Cc3ccccc3)(C2)C(=O)N[C@@H](Cc2ccc(-c3ccc(/C=C/C(=O)O)cc3)cc2)C(=O)NCc2ccccc2CC(=O)N1
// result 8.40

// query Same read-out for NCCOCCNC(=O)[C@@H]1CCNC(=O)/C=C/C(=O)N2CCC[C@](Cc3ccccc3)(C2)C(=O)N[C@@H](Cc2ccc(-c3ccc(C(=O)O)cc3)cc2)C(=O)NCc2ccccc2CC(=O)N1 ?
// result 5.80

New cases:
// query // lookup pIC50 for NCCOCCNC(=O)[C@@H]1CCNC(=O)/C=C/C(=O)N2CCC[C@](Cc3ccccc3)(C2)C(=O)N[C@@H](Cc2ccc(-c3ccccc3)cc2)C(=O)NCc2ccccc2CC(=O)N1
// result 6.52
